- Test system: OVCAR-5 ovarian
- protocolDetails: NCI tumour cell line growth inhibition, 48 h
Measured TGI accompanies every entry in the list below.
resultType: TGI

* CC(C)=CCC[C@](C)(O)[C@H]1CC[C@]2(C)[C@@H]1CC[C@@H]1[C@@]3(C)CC/C(=N/O)C(C)(C)[C@@H]3CC[C@]12C | > 100 µM
* CCOC(=O)C(Cc1ccc(OC(=O)c2ccc(OC)cc2)cc1)NC(=O)C(F)(F)F (stereo not given) | > 100 µM
* Cn1c(=O)c2c(nc3n2CCCC(=O)N3CC(O)CCl)n(C)c1=O (stereo not given) | > 100 µM
* COc1cc(C2c3cc4c(cc3OC(NNS(=O)(=O)c3ccc(C)cc3)C2C)OCO4)cc(OC)c1O (stereo not given) | > 100 µM
* O=c1[nH]c(=S)[nH]c2c1CN(CCCN1CCOCC1)CN2 | > 100 µM
* CC(=O)Nc1c(C)cc2c(nc3n2CCC3OC(C)=O)c1[N+](=O)[O-] (stereo not given) | > 100 µM
* COC(=O)c1ccc(N=NN(C)COc2ccc(Br)cc2)cc1 | > 100 µM
* O=C(c1ccccc1)C1OC12C(=O)Nc1c(Cl)cc(Cl)cc12 (stereo not given) | > 100 µM
* C[C@@]12CCC[C@@](C)(C(=O)O)C1CC[C@]13C[C@@](O)(CO)[C@](O)(CCC12)C3 (stereo not given in full) | > 100 µM
* Cc1cccc(C(C)(C)C)c1NC(=O)CC1C(=O)Nc2ccccc2S1(=O)=O (stereo not given) | 27 µM
* C=C1CCC2C3(C)COC(c4ccccc4)OC3CCC2(C)C1/C=C/C1=CCOC1=O (stereo not given) | 22 µM
* COC(=O)c1cc(C(=CCC[C@H]2CC[C@@]3(C)C(CCC4C3CC[C@@]3(C)C4CC[C@@H]3C(C)CCCC(C)C)C2)c2cc(Cl)c(O)c(C(=O)OC)c2)cc(Cl)c1O (stereo not given in full) | > 10 µM
* CC(C)=CCC/C(C)=C/CC/C(C)=C/CC/C(C)=C/CC/C(C)=C/CC/C(C)=C/CC/C(C)=C/CC/C(C)=C/CC/C(C)=C/CO | > 100 µM
* S=C(Nc1ccc(-c2nc3ccccc3[nH]2)cc1)Nc1ccc(-c2nc3ccccc3[nH]2)cc1 | > 100 µM
* O=C(CCN1CCN(c2ccccc2)CC1)N1CCc2c([nH]c3ccccc23)C1c1cccnc1 (stereo not given) | 34.6 µM

---

- System: BT-549 breast
- protocolDetails: NCI tumour cell line growth inhibition, 48 h
resultType: TGI (µM)

* C=CC(=O)Nc1cc(C)ccc1Nc1nc(Nc2cc(OC)ncc2C)ncc1C(F)(F)F | 6.07
* CN(C)CCn1c(=O)c2ccc(NCCN3CCNCC3)c3c(=O)c4ccccc4n(c1=O)c23 | 22.9
* O=C(c1ccccc1)C1OC1c1ccc([N+](=O)[O-])cc1 (stereo not given) | 44.3
* CCN(CC)CC(O)CNc1c2ccc([N+](=O)[O-])cc2nc2cc(OC)c(OC)cc12 (stereo not given) | 3.85
* C#Cc1c(/C=C/C(=O)OCC)ccc2ccccc12 | 44.7
* COc1cc(C(=O)N2CCN(c3ncnc4ccccc34)CC2)c(N)cc1OCc1ccccc1 | 25

---

- Tested on: SW-620 colon
- protocolDetails: NCI tumour cell line growth inhibition, 48 h; in the data active means GI50 below about 0.43 µM; inactive means the rest
Labels: active, inactive

• C[C@@]12CCC[C@@](C)(C(=O)O)C1CC[C@]13C[C@@](O)(CO)[C@](O)(CCC12)C3 (stereo partly specified) = inactive
• Cc1cc(N2CCOCC2)nc(N[C@@H]2CCC[C@H](Nc3ccnc4cc(Cl)ccc34)C2)n1 = inactive
• O=Nc1ccc(NO)c2ccccc12 = inactive
• Oc1ccc(-c2nc3ccccc3s2)cc1CN(Cc1ccccn1)Cc1ccccn1 = inactive
• NCCOCCOCCNc1nc(-c2ccccc2)nc(N2CCN(c3ccccn3)CC2)n1 = inactive
• O=C(Nc1ccc(Cl)c(Cl)c1)Nc1c(Oc2ccc(Cl)c(Cl)c2)ccc(Cl)c1S(=O)(=O)O = inactive
• O=C(c1ccccc1)C(CN1CCCCC1)c1ccccc1 (stereo unspecified) = inactive
• COc1cc(C2SCC(=O)N2c2ncc(C)s2)cc(OC)c1OC (stereo unspecified) = inactive
• CO/N=C(\C)c1ccc(Nc2cc(-c3ccccc3)nc3ccc(OC)cc23)cc1 = inactive
• NCCCCCCCn1c2c(c3ccccc3c1=O)C(=O)c1ccccc1-2 = inactive
• O=C(NCCCO)c1cc(Cl)ccc1O = inactive
• CCC(=C/[C@H](C)C/C=C/C(C)=C/[C@@H](C)C(=O)[C@@H](C)[C@H](O)[C@@H](C)CC)/C=C/[C@@H]1OC(=O)C=C[C@H]1C = active
• CCC[CH2][Sn]1([CH2]CCC)[O]CC(CN(C)Cc2ccccc2)[O]1 (stereo unspecified) = inactive
• Cn1c2c(c3ccc([N+](=O)[O-])cc3c1=O)C(=O)c1ccccc1-2 = inactive
• CC(=O)OC(C)(C)/C(C)=C/C(=O)O[C@H]1C(=O)O[C@@H]2C[C@H]3[C@H](C)C(=O)C(O[C@@H]4O[C@H](CO)[C@@H](O)[C@H](O)[C@H]4O)=C[C@]3(C)[C@H]3[C@@H](O)[C@H](O)[C@@]4(C(=O)O)OC[C@]32[C@@H]14 = inactive
• CNC(=O)c1ccccc1Nc1nc(Nc2cc(OC)c(OC)c(OC)c2)ncc1Br = active
• CCN(CC)c1ccc(C(O)C2=CC(=O)c3ccccc3C2=O)cc1 (stereo unspecified) = inactive
• COc1cc(NCCCN=C(N)NC(N)=NC(C)C)c2ncccc2c1 = inactive
• CC(=O)c1c(C)[nH]c(-c2nc3ccc(N4CCN(C)CC4)cc3[nH]2)c1-c1ccc(N(C)C)cc1 = inactive
• COC(=O)c1cc(O)c2cc3c(cc2c1-c1cc(OC)c(OC)c(OC)c1)OCO3 = inactive
• Cc1csc(/C=C/C(=O)c2nnn(-c3ccnc4c(C(F)(F)F)cccc34)c2C)c1 = inactive
